Field: MIC. Provide a value for each of the compounds that follow.
# Tested on: Salmonella typhi
# procedure_text: Antibacterial activity against Salmonella typhi ATCC 24915 after 24 hrs by twofold serial dilution method
# Type: functional, Salmonella enterica subsp. enterica serovar Typhi
# protocol_conditions: Salmonella enterica, ATCC 24915, 24 h
Numbers only, in µg/mL.

1) C[C@@H]1/C(=N\NC(=S)Nc2ccccc2)[C@@H](C)[C@H](c2cccc(Cl)c2)O[C@@H]1c1cccc(Cl)c1 ... 12.5
2) C[C@@H]1/C(=N\NC(N)=S)[C@@H](C)[C@H](c2ccc(F)cc2)O[C@@H]1c1ccc(F)cc1 ... 25
3) Cc1ccc([C@H]2O[C@@H](c3ccc(C)cc3)[C@H](C)/C(=N/NC(N)=S)[C@H]2C)cc1 ... 50

Hey, quick one: what's MIC for each of these?
1. COc1ccc([C@H]2O[C@@H](c3ccc(OC)cc3)[C@H](C)/C(=N/NC(=S)Nc3ccccc3)[C@H]2C)cc1
2. Cc1ccc([C@H]2O[C@@H](c3ccc(C)cc3)[C@H](C)/C(=N/NC(=S)Nc3ccccc3)[C@H]2C)cc1

1: 100; 2: 50
